Data provenance is patent US20210317213A1.

Biological target: T1, human CD3 (human, UniProt P07766 23-207)
T1 construct: whole, on cells; also called CD3 on human T-cells
T1 sequence (P07766 23-207): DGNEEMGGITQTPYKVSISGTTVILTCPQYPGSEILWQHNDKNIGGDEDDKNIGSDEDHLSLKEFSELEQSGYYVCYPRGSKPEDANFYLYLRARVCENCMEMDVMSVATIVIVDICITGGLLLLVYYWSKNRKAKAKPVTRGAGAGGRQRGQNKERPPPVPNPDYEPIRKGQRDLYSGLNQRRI
Assay: cell binding, activated human PBMC; E. coli protein
pEC50: −log10 of the molar value.
metric: pEC50

- Fab1-HK129-Folate (Fab, V domains shown, pAF at HK129 (Kabat) conjugated to folate (oxime), From E. coli; also called Folate lead; parent control) VH: EVQLVESGGGLVQPGGSLRLSCAASGFTFNTYAMNWVRQAPGKGLEWVARIRSKYNNYATYYADSVKDRFTISRDDSKNILYLQMNSLKTEDTAVYYCVRHGNFGNSYVSWFAYWGQGTLVTVSS VL: QAVVTQEPSLTVSPGGTVTLTCRSSTGAVTTSNYANWVQQKPGQAPRGLIGGTNKRAPGTPARFSGSLLGGKAALTLSGAQPEDEAEYYCALWYSNLWVFGGGTKLTVLG: 8.77
